- studySystem: MAGE-A11:PCF11 (Homo sapiens (Human))
- methodNotes: TR-FRET single point screening at 15 μM
- Type: binding
- Design: unit not given here
- studyConditions: single point TR-FRET screening of quinoline compounds against MAGE-A11:PCF11; 15 μM
- Source text: TR-FRET Assays and High-throughput Screen. Terbium-anti-GST antibody, 1 M Tris pH 7.5 1 M MgCl2 and 1 M DTT were purchased from Invitrogen (Carlsbad, CA), BSA was purchased from Sigma (St. Louis, MO). Dimethyl sulfoxide (DMSO) was purchased from Fisher Scientific (Pittsburgh, PA). Black 384-well low volume plates and 384-well polypropylene compound plates were purchased from Corning Incorporated (Tewksbury, MA). […]
endpointName: TR-FRET signal
Give the figure by itself; no unit, no explanation.

1. CCCCCCN(CCC)CCCNc1ccnc2cc(Cl)ccc12 [SJ000523048] : 1.317
2. Fc1cccc(CN(CCCNc2ccnc3cc(Cl)ccc23)Cc2ccccc2)c1 [SJ000361176] : 20.36

QUERY: Consider the compound shown here: CCCN(CCCNc1ccnc2cc(Cl)ccc12)Cc1cccn1C [SJ000523014] What is its recorded TR-FRET signal?
RESULT: 22.71

QUERY: Fill in: TR-FRET signal of CCCN(CCCNc1ccnc2cc(Cl)ccc12)Cc1ccc2c(c1)OCO2 [SJ000522753] is ___
RESULT: 18.75

QUERY: So what does the record say about TR-FRET signal for CCCN(CCCNc1ccnc2cc(C(F)(F)F)ccc12)Cc1cc(OC)ccc1F [SJ000520480] ?
RESULT: 11.96

QUERY: // TR-FRET signal lookup, key: Clc1cccc(Cl)c1Cc1ccc2c(NCCCNCc3ccco3)ccnc2c1 [SJ000311314]
RESULT: 32.4

QUERY: Query: TR-FRET signal; subject: CCCN(CCCNc1ccnc2cc(C(F)(F)F)ccc12)Cc1cc2ccccc2s1 [SJ000520482]
RESULT: 13.01

QUERY: Param item = Cc1ccc(CNCCCNc2ccnc3cc(C(F)(F)F)ccc23)o1 [SJ000361109] ; retrieve measured TR-FRET signal.
RESULT: 14.45

QUERY: Would you mind telling me what TR-FRET signal value was observed for CCCCCN(CCC)CCCNc1ccnc2cc(Cl)ccc12 [SJ000522754] ?
RESULT: 16.29

====

- studySystem: MAGE-A11:PCF11 (Homo sapiens (Human))
- methodNotes: TR-FRET single point screening at 15 μM
- Assay type: binding
- Parameters: unit not given here
- studyConditions: single point TR-FRET screening of quinoline compounds against MAGE-A11:PCF11; 15 μM
Flag rule - TR-FRET signal less than 20 flags True; the remaining entries get False.

QUERY: # TODO verify TR-FRET signal < 20 strictly for this compound: Cc1ccsc1CNCCCNc1ccnc2cc(Cl)ccc12
RESULT: True

====

TR-FRET signal: recorded values
- studySystem: MAGE-A11:PCF11 (Homo sapiens (Human), UniProt P43364)
- Sequence (P43364 218-429): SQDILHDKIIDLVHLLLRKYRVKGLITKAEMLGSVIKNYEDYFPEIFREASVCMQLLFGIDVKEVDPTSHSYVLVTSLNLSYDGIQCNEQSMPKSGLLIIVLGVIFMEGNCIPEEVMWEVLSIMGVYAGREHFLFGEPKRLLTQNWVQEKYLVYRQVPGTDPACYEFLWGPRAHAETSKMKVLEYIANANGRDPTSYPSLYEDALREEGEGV
- methodNotes: TR-FRET single point screening at 15 μM
- Type: binding
- Set-up: unit not given here
- studyConditions: single point TR-FRET screening of quinoline compounds against MAGE-A11:PCF11; 15 μM
Just the number, please, no unit attached.

Sample answers from the record:
1. CCCN(CCCNc1ccnc2cc(C(F)(F)F)ccc12)Cc1cc(OC(F)(F)F)ccc1OC : 5.6
2. CSC(C)CCNCCCNc1ccnc2cc(C(F)(F)F)ccc12 (stereo not drawn) : 24.46
3. CCCN(CCCNc1c2ccc(Cl)cc2nc2ccc(OC)cc12)Cc1cc(C(F)(F)F)ccc1OC : −46.02
4. c1ccc(Oc2ccc3c(NCCCNCc4ccco4)ccnc3c2)cc1 : 14.59
5. Cc1ccc(CNCCCNc2ccnc3cc(Cl)ccc23)o1 : 10.2
6. CCCN(CCCNc1ccnc2cc(Cl)ccc12)Cc1nccn1C : 6.351
7. FC(F)(F)Oc1ccccc1CN(CCCNc1ccnc2cc(Cl)ccc12)Cc1ccccc1 : 19.76
8. CCCCN(CCCNc1ccnc2cc(Cl)ccc12)Cc1ccccc1 : 19.31

QUERY: Look up TR-FRET signal: CCCN(CCCNc1c2ccc(Cl)cc2nc2ccc(OC)cc12)Cc1ccc(Cl)c([N+](=O)[O-])c1
RESULT: −71.03

====

- studySystem: MAGE-A11:PCF11 (Homo sapiens (Human), UniProt P43364)
- methodNotes: TR-FRET single point screening at 15 μM
- Assay type: binding
- Set-up: unit not given here
- studyConditions: single point TR-FRET screening of quinoline compounds against MAGE-A11:PCF11; 15 μM
endpointName: TR-FRET signal
Please respond with just the number, no unit label.

Solved cases below.
1. CCOC(=O)c1cnc2ccc(OC)cc2c1NCCCN1CCOCC1 : 2.945
2. CCCN(CCCNc1c2ccc(Cl)cc2nc2ccc(OC)cc12)Cc1cccc(OC(F)(F)F)c1 : 14.48

QUERY: May I ask what TR-FRET signal has been recorded for CCCN(CCCNc1ccnc2cc(Cl)ccc12)Cc1ccc(Cl)c([N+](=O)[O-])c1 ?
RESULT: 16.95

QUERY: For the molecule COc1ccc(F)cc1CN(CCCNc1ccnc2cc(Cl)ccc12)Cc1ccccc1 , what TR-FRET signal is on record?
RESULT: 6.683

====

Reported pIC50 is given for each of the following compounds.
- studySystem: interaction between GST-MAGEA11 MHD and FAM-PCF11_4 peptide (MAGE-A11:PCF11) (Homo sapiens (Human), UniProt P43364)
- Sequence (P43364 218-429): as above
- methodNotes: TR-FRET dose response competition assay for disruption of MAGE-A11:PCF11 binding
- studyConditions: Dose response TR-FRET screening of nine scaffold groups against MAGE-A11:PCF11; read-out: consensus IC50
Interpret pIC50 as the negative base-10 log of the concentration measured in mol/L.

// below: answered compounds
1. COc1ccc(-c2nc(C#N)c(N3CCOCC3)o2)cc1 [SJ000051527-1] : 4.16
2. COc1cccc(CNCCCNc2ccnc3cc(Cc4ccc(F)cc4)ccc23)c1O [SJ000311243-1] : 4.36
3. COc1cc(NCc2ccc3nc(N)nc(N)c3c2C)cc(OC)c1OC [SJ000574313-7] : 5.02
4. CCOc1ccc(N(C(C)=O)C2=C(N)C(=O)c3ccccc3C2=O)cc1 [SJ000558312-2] : 4.18

QUERY: Reported pIC50 for CCn1c2ccccc2c2cc(CN3CCN(Cc4c[nH]c5ccccc45)CC3)ccc21 [SJ000111264-1] : what is it?
RESULT: 4.16

QUERY: Reported pIC50 for CCOc1ccc(C2Nc3ccccc3C(=O)N2CCCN2CCOCC2)cc1 (stereo not drawn) [SJ000803759-1] : what is it?
RESULT: 4.17

QUERY: Request the reported pIC50 associated with N#CCCn1cnc2cc(-c3ccc(Br)cc3)sc2c1=O [SJ000397713-1]
RESULT: 4.16

QUERY: Item under review: COc1ccccc1CNC(=O)Cn1cnc2cc(-c3ccc(Cl)cc3)sc2c1=O [SJ000444040-1] . Reported pIC50?
RESULT: 4.16

QUERY: Find the recorded pIC50 belonging to Cc1ccc(S(=O)(=O)c2nc(-c3ccccc3C)oc2N2CC(C)OC(C)C2)cc1 (stereo not drawn) [SJ000329041-1] and report it.
RESULT: 4.93

====

- studySystem: MAGE-A11:PCF11 (Homo sapiens (Human))
- methodNotes: TR-FRET single point screening at 15 μM
- Assay type: binding
- Set-up: unit not given here
- studyConditions: single point TR-FRET screening at 15 μM against MAGE-A11:PCF11
TR-FRET signal less than -7 is true; TR-FRET signal greater than or equal to -7 is false.

Worked cases, answers included:
1. Clc1ccc2c(NCCCCN(Cc3ccccc3)Cc3nccs3)ccnc2c1 : false
2. CCCN(CCCNc1c2ccc(Cl)cc2nc2ccc(OC)cc12)CC(C)CC (centres unmarked) : true
3. CCN(CC)CC(=O)Nc1c2c(nc3ccccc13)CCC2 : false

QUERY: Consider COc1ccc2nc3cc(Cl)ccc3c(NCCCNCCC(C)SC)c2c1 (centres unmarked) . Does its TR-FRET signal lie strictly below -7?
RESULT: true

QUERY: A record lists COc1ccc2nc3cc(Cl)ccc3c(NCCCNCc3nccs3)c2c1 . Is its TR-FRET signal below -7?
RESULT: true

QUERY: Does the reported TR-FRET signal of Clc1ccc2c(NCCCCN(Cc3ccccc3)Cc3ccc4[nH]ccc4c3)ccnc2c1 stay below -7?
RESULT: false

QUERY: Report whether reported TR-FRET signal is lower than -7 (strictly) for CCCN(CCCNc1c2ccc(Cl)cc2nc2ccc(OC)cc12)Cc1ccc(OC)c(F)c1
RESULT: true

QUERY: Strictly below -7: is that where TR-FRET signal of Clc1ccc2c(NC3CCN(Cc4ccc(Br)o4)CC3)ccnc2c1 sits?
RESULT: false

QUERY: API: query returns whether the compound falls strictly under -7 in TR-FRET signal. Query: COc1ccc2ncc(S(=O)(=O)c3ccccc3)c(N3CCN(c4ccccc4)CC3)c2c1
RESULT: true

QUERY: # TODO verify TR-FRET signal < -7 strictly for this compound: COc1cccc(CN2CCC(Nc3ccnc4cc(Cl)ccc34)CC2)c1O
RESULT: false

QUERY: Just wondering, is TR-FRET signal of COc1ccc2nc3cc(Cl)ccc3c(NCCCNCc3cc(C(F)(F)F)ccc3OC)c2c1 below -7?
RESULT: true

QUERY: Here's an entry: CCCN(CCCNc1c2ccc(Cl)cc2nc2ccc(OC)cc12)Cc1cccn1C . Is its TR-FRET signal below -7?
RESULT: true
